- TARGET_SYSTEM: T1, human cholecystokinin-1 receptor (human, UniProt P32238 1-428)
- T1 construct: whole, on cells; also called CCK-1R; CCK-1 receptor
- T1 sequence (looked up): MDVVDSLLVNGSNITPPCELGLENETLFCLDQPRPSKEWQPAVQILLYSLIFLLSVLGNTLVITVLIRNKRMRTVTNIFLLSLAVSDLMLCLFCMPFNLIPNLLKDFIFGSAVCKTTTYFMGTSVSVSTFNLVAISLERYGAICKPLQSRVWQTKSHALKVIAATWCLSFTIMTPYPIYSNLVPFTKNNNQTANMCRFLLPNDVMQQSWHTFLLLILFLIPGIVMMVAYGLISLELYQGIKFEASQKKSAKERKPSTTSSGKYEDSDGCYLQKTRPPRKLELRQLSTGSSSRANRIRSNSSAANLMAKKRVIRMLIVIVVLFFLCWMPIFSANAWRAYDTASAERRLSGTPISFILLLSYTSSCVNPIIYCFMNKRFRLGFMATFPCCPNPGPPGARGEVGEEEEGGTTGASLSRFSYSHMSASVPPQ
- METHOD_SUMMARY: SPA competition vs [125I]-CCK-8s, membranes
Non-standard residues stand in square brackets, D forms with d. No end group written: not given here. sY = N[C@@H](Cc1ccc(OS(=O)(=O)O)cc1)C(=O)O; Met(O2) = CS(=O)(=O)CC[C@H](N)C(=O)O; NMeF = CN[C@@H](Cc1ccccc1)C(=O)O; dNMeD = CN[C@H](CC(=O)O)C(=O)O; Nle = CCCC[C@H](N)C(=O)O
EXPERIMENTAL_ENDPOINT: IC50 (nM)
Give bare numbers, in nM.

D[sY]AGW[Nle][dNMeD][NMeF]-NH2 (N-terminus assumed; SMILES CCCC[C@H](NC(=O)[C@H](Cc1c[nH]c2ccccc12)NC(=O)CNC(=O)[C@H](C)NC(=O)[C@H](Cc1ccc(OS(=O)(=O)O)cc1)NC(=O)[C@@H](N)CC(=O)O)C(=O)N(C)[C@H](CC(=O)O)C(=O)N(C)[C@@H](Cc1ccccc1)C(N)=O, X = Nle or Nal) [Asp-sTyr-Ala-Gly-Trp-Nle-DMeAsp-MePhe-amide] = 0.055
D[sY]LGW[Met(O2)][dNMeD][NMeF]-NH2 [Asp-sTyr-Leu-Gly-Trp-Met(O2)-DMeAsp-MePhe-amide] = 0.54

# next binder below
Prompt: So what's the measured IC50 for this one? D[sY]FGW[Nle][dNMeD][NMeF]-NH2 (N-terminus assumed; SMILES CCCC[C@H](NC(=O)[C@H](Cc1c[nH]c2ccccc12)NC(=O)CNC(=O)[C@H](Cc1ccccc1)NC(=O)[C@H](Cc1ccc(OS(=O)(=O)O)cc1)NC(=O)[C@@H](N)CC(=O)O)C(=O)N(C)[C@H](CC(=O)O)C(=O)N(C)[C@@H](Cc1ccccc1)C(N)=O, X = Nle or Nal) [Asp-sTyr-Phe-Gly-Trp-Nle-DMeAsp-MePhe-amide]
Completion: 0.029

Ref: patent US20170008928A1
